Test system: recombinant NL-Rluc virus (NL4-3 with Renilla Luciferase gene) in MT-2 cells
assay notes: Inhibition of HIV replication (NL-Rluc luciferase reporter virus, MT-2 cells)
Assay type: cell-based, human immunodeficiency virus (HIV)
measurement context: NL43, 120 h, read-out: Activity
pEC50: −log10 of the molar value. Where a name gives a salt, the structure may show the parent alone.
measurement name: pEC50

Previously resolved entries follow.
[
  {
    "compound": "Cc1nc2cc(-c3ccccc3)nn2c(-c2ccc3occc3c2)c1C(OC(C)(C)C)C(=O)O (stereo not drawn)",
    "measurement name": "pEC50",
    "readout value": "< 6.00"
  },
  {
    "compound": "COc1ccc(-c2c(C(OC(C)(C)C)C(=O)O)c(C)nc3cc(-c4ccccc4)nn23)cc1C(F)(F)F (stereo not drawn)",
    "measurement name": "pEC50",
    "readout value": "< 6.00"
  },
  {
    "compound": "Cc1nc2cc(-c3ccccc3)nn2c(-c2ccc(Cl)c(Cl)c2)c1C(OC(C)(C)C)C(=O)O (stereo not drawn)",
    "measurement name": "pEC50",
    "readout value": "< 6.00"
  }
]

Enquiry: So what does the record say about pEC50 for Cc1nc2cc(-c3cccc(-c4cccc(F)c4)c3)nn2c(-c2cc(F)c3c(c2C)CCCO3)c1[C@H](OC(C)(C)C)C(=O)O [Example 128, TFA salt] ?
Return: > 7.00

Enquiry: Could you share which pEC50 value was measured for Cc1nc2cc(-c3cccc(Cl)c3)nn2c(C(C)C)c1[C@H](OC(C)(C)C)C(=O)O ?
Return: < 6.00
